Below, each of the molecules is paired with its reported pIC50 value.
Target: KRAS G12S (Homo sapiens (Human), UniProt P01116+P62937, G12S)
Sequence (P01116 other isoform, or with tags, fused parts or gaps G12S): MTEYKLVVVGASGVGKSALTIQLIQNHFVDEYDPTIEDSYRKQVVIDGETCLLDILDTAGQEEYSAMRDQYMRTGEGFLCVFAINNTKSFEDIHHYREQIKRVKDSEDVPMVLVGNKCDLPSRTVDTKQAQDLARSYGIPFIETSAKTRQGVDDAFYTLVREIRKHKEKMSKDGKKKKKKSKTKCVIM
Sequence (P62937 whole entry): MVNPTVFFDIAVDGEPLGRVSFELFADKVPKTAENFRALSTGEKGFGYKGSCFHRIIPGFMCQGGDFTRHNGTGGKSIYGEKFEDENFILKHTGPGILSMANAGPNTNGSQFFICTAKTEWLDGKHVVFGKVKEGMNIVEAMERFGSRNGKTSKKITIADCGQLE
Assay: Ras-Raf disruption/FRET/MOA assay (BRAF RBD, Cyclophilin A)
Type: biochemical
Details: read-out: KRAS G12S FRET IC50
pIC50: −log10 of the molar value.

| input smiles | system name | pIC50 |
| --- | --- | --- |
| CCn1c(-c2cccnc2[C@H](C)OC)c2c3cc(ccc31)-c1csc(n1)C[C@H](NC(=O)[C@H](C(C)C)N(C)C(=O)N(C)C[C@H]1CCN1C)C(=O)N1CCC[C@H](N1)C(=O)OCC(C)(C)C2 | KRAS G12S (Homo sapiens (Human), UniProt P01116+P62937, G12S) | 6.00 to 7.00 |
| CCn1c(-c2cccnc2[C@H](C)OC)c2c3cc(ccc31)-c1cccc(c1)C[C@H](NC(=O)[C@H](C(C)C)N(C)C(=O)[C@H]1CCN(C)C1)C(=O)N1CCC[C@H](N1)C(=O)OCC(C)(C)C2 | KRAS G12S (Homo sapiens (Human), UniProt P01116+P62937, G12S) | 5.00 to 6.00 |
| CCn1c(-c2cccnc2[C@H](C)OC)c2c3cc(ccc31)-c1cc(O)cc(c1)C[C@H](NC(=O)[C@H](C(C)C)N(C)C(=O)[C@@H]1CCN(C(=O)OC)C1)C(=O)N1CCC[C@H](N1)C(=O)OCC(C)(C)C2 | KRAS G12S (Homo sapiens (Human), UniProt P01116+P62937, G12S) | 7.00 to 8.00 |
| CCn1c(-c2cccnc2[C@H](C)OC)c2c3cc(ccc31)-c1cc(O)cc(c1)C[C@H](NC(=O)[C@H](C(C)C)N(C)C(=O)[C@H]1OCC[C@H]1N)C(=O)N1CCC[C@H](N1)C(=O)OCC(C)(C)C2 | KRAS G12S (Homo sapiens (Human), UniProt P01116+P62937, G12S) | 6.00 to 7.00 |
| CCn1c(-c2cnccc2COC)c2c3cc(ccc31)-c1cc(O)cc(c1)C[C@H](NC(=O)[C@H](C(C)C)N(C)C(=O)CNC(=N)N)C(=O)N1CCC[C@H](N1)C(=O)OCC(C)(C)C2 | KRAS G12S (Homo sapiens (Human), UniProt P01116+P62937, G12S) | 7.00 to 8.00 |
| CCn1c(-c2cccnc2[C@H](C)OC)c2c3cc(ccc31)-c1csc(n1)C[C@H](NC(=O)[C@H](C(C)C)N(C)C(=O)N1CCN(C(C)=O)CC1)C(=O)N1CCC[C@H](N1)C(=O)OCC(C)(C)C2 | KRAS G12S (Homo sapiens (Human), UniProt P01116+P62937, G12S) | 7.00 to 8.00 |
| CCn1c(-c2cnccc2COC)c2c3cc(ccc31)-c1cc(O)cc(c1)C[C@H](NC(=O)[C@H](C(C)C)N(C)C(=O)[C@H]1CCN(C3CCOCC3)C1)C(=O)N1CCC[C@H](N1)C(=O)OCC(C)(C)C2 | KRAS G12S (Homo sapiens (Human), UniProt P01116+P62937, G12S) | 6.00 to 7.00 |
| CCn1c(-c2cccnc2[C@H](C)OC)c2c3cc(ccc31)-c1csc(n1)C[C@H](NC(=O)[C@H](C(C)C)N(C)C(=O)N1CC(C3COC3)C1)C(=O)N1CCC[C@H](N1)C(=O)OCC(C)(C)C2 | KRAS G12S (Homo sapiens (Human), UniProt P01116+P62937, G12S) | 6.00 to 7.00 |
| CCn1c(-c2cccnc2[C@H](C)OC)c2c3cc(ccc31)-c1cc(O)cc(c1)C[C@H](NC(=O)C(=C(C)C)N(C)C(C)=O)C(=O)N1CCC[C@H](N1)C(=O)OCC(C)(C)C2 | KRAS G12S (Homo sapiens (Human), UniProt P01116+P62937, G12S) | 5.00 to 6.00 |

====

Target: NRAS G12C (Homo sapiens (Human), UniProt P01111+P62937, G12C)
Sequence (P01111 whole entry G12C, one chain of several): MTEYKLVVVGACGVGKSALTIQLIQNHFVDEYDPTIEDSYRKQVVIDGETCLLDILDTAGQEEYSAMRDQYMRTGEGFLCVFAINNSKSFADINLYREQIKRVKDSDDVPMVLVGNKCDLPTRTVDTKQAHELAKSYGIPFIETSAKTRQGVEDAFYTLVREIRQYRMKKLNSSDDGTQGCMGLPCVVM
Experiment: Ras-Raf disruption/FRET/MOA assay (BRAF RBD, Cyclophilin A)
Format: biochemical
Conditions: read-out: NRAS G12C FRET data IC50
endpoint name: IC50

| input smiles | endpoint name | assay result |
| --- | --- | --- |
| CCn1c(-c2cccnc2[C@H](C)OC)c2c3cc(ccc31)-c1csc(n1)C[C@H](NC(=O)[C@H](C(C)C)N(C)C(=O)N1CC(N(C)C(C)C)C1)C(=O)N1CCC[C@H](N1)C(=O)OCC(C)(C)C2 | IC50 | 100 to 1000 nM |
| CCn1c(-c2cccnc2[C@H](C)OC)c2c3cc(ccc31)-c1csc(n1)C[C@H](NC(=O)[C@H](C(C)C)N(C)C(=O)N1C[C@H](N)[C@@H](O)C1)C(=O)N1CCC[C@H](N1)C(=O)OCC(C)(C)C2 | IC50 | 10 to 100 nM |
| CCn1c(-c2cccnc2[C@H](C)OC)c2c3cc(ccc31)-c1cc(O)cc(c1)C[C@H](NC(=O)[C@H](C(C)C)N(C)C(=O)C1CCC1)C(=O)N1CCC[C@H](N1)C(=O)OCC(C)(C)C2 | IC50 | 10 to 100 nM |
| CCn1c(-c2cnccc2COC)c2c3cc(ccc31)-c1cc(O)cc(c1)C[C@H](NC(=O)[C@H](C(C)C)N(C)C(=O)[C@H]1CCN(C(C)C)C1)C(=O)N1CCC[C@H](N1)C(=O)OCC(C)(C)C2 | IC50 | 100 to 1000 nM |
| CCn1c(-c2cccnc2[C@H](C)OC)c2c3cc(ccc31)-c1csc(n1)C[C@H](NC(=O)[C@H](C(C)C)N(C)C(=O)N1CC(C(=O)O)C1)C(=O)N1CCC[C@H](N1)C(=O)OCC(C)(C)C2 | IC50 | 100 to 1000 nM |
| CCn1c(-c2cccnc2[C@H](C)OC)c2c3cc(ccc31)-c1csc(n1)C[C@H](NC(=O)[C@H](C(C)C)N(C)C(=O)N1CCO[C@@H](c3ccccc3)C1)C(=O)N1CCC[C@H](N1)C(=O)OCC(C)(C)C2 | IC50 | 10 to 100 nM |
| CCn1c(-c2cccnc2[C@H](C)OC)c2c3cc(ccc31)-c1csc(n1)C[C@H](NC(=O)[C@H](C(C)C)N(C)C(=O)N1CC3(CC(N(C)C4COC4)C3)C1)C(=O)N1CCC[C@H](N1)C(=O)OCC(C)(C)C2 | IC50 | 100 to 1000 nM |
| CCn1c(-c2cccnc2[C@H](C)OC)c2c3cc(ccc31)-c1cc(CF)cc(c1)C[C@H](NC(=O)[C@H](C(C)C)N(C)C(=O)[C@@H]1OCC[C@@H]1c1ccccc1)C(=O)N1CCC[C@H](N1)C(=O)OCC(C)(C)C2 | IC50 | 10 to 100 nM |
| CCn1c(-c2cccnc2[C@H](C)OC)c2c3cc(ccc31)-c1csc(n1)C[C@H](NC(=O)[C@H](C(C)C)N(C)C(=O)N1CC(O)(CN(C)C)C1)C(=O)N1CCC[C@H](N1)C(=O)OCC(C)(C)C2 | IC50 | 100 to 1000 nM |

====

Biological target: KRAS G12V binding to BRAF RBD (Homo sapiens (Human), UniProt P01116+P62937, G12V)
Sequence (P01116 other isoform, or with tags, fused parts or gaps G12V, one chain of several): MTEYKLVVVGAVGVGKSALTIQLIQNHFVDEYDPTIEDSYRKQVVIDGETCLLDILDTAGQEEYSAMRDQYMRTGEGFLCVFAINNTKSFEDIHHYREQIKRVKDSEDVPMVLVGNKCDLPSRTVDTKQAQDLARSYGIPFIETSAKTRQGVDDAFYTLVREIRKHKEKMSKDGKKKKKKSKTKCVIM
Assay: Ras-Raf disruption/FRET/MOA assay, KRAS G12V
Assay type: biochemical
Settings: read-out: KRAS G12V FRET IC50
pIC50: −log10 of the molar value.
endpoint name: pIC50

| compound | system name | assay result |
| --- | --- | --- |
| CCn1c(-c2cccnc2[C@H](C)OC)c2c3cc(ccc31)-c1csc(n1)C[C@H](NC(=O)[C@H](C(C)C)N(C)C(=O)N1CCC[C@H](N(C)C)CC1)C(=O)N1CCC[C@H](N1)C(=O)OCC(C)(C)C2 [Compound A493] | KRAS G12V binding to BRAF RBD (Homo sapiens (Human), UniProt P01116+P62937, G12V) | 7.00 to 8.00 |
| CCn1c(-c2cccnc2[C@H](C)OC)c2c3cc(ccc31)-c1csc(n1)C[C@H](NC(=O)[C@H](C(C)C)N(C)C(=O)N1CC(N3CCC3)C1)C(=O)N1CCC[C@H](N1)C(=O)OCC(C)(C)C2 [Compound A295] | KRAS G12V binding to BRAF RBD (Homo sapiens (Human), UniProt P01116+P62937, G12V) | 7.00 to 8.00 |
| C=CC(=O)N(C)CC1CCN(C(=O)N(C)[C@H](C(=O)N[C@H]2Cc3nc(cs3)-c3ccc4c(c3)c(c(-c3cccnc3[C@H](C)OC)n4CC)CC(C)(C)COC(=O)[C@@H]3CCCN(N3)C2=O)C(C)C)CC1 (atropisomer, axis not shown) [Compound A629] | KRAS G12V binding to BRAF RBD (Homo sapiens (Human), UniProt P01116+P62937, G12V) | 7.00 to 8.00 |
